Tested on: LoVo/DX (drug-resistant human colon cancer)
experimental protocol: In vitro cytotoxicity test, SRB assay, 72 h incubation with compound
Assay type: cell-based
condition parameters: drug resistance coefficient, LoVo/DX versus LoVo; 4320 min
endpoint name: RI

Indicate the recorded RI value for this compound: CC[C@@H](C(=O)[C@@H](C)[C@@H](O)[C@H](C)[C@@H]1O[C@@H]([C@@H](CC)C(=O)O)CC[C@@H]1C)[C@H]1O[C@]2(C=C[C@@H](N)[C@]3(CC[C@@](C)([C@H]4CC[C@](O)(CC)[C@H](C)O4)O3)O2)[C@H](C)C[C@@H]1C [(3), C20-aminosalinomycin, reference compound]
0.6

Provide RI value for the following compound: CC[C@@H](C(=O)[C@@H](C)[C@@H](O)[C@H](C)[C@@H]1O[C@@H]([C@@H](CC)C(=O)O)CC[C@@H]1C)[C@H]1O[C@]2(C=C[C@@H](NC(=O)OCC(C)(C)C)[C@]3(CC[C@@](C)([C@H]4CC[C@](O)(CC)[C@H](C)O4)O3)O2)[C@H](C)C[C@@H]1C
0.8

Give me measured RI, please, for this compound: CC[C@@H](C(=O)[C@@H](C)[C@@H](O)[C@H](C)[C@@H]1O[C@@H]([C@@H](CC)C(=O)O)CC[C@@H]1C)[C@H]1O[C@]2(C=C[C@@H](NC(=O)CCl)[C@]3(CC[C@@](C)([C@H]4CC[C@](O)(CC)[C@H](C)O4)O3)O2)[C@H](C)C[C@@H]1C
0.7

Provide one value: measured RI of CC[C@@H](C(=O)[C@@H](C)[C@@H](O)[C@H](C)[C@@H]1O[C@@H]([C@@H](CC)C(=O)O)CC[C@@H]1C)[C@H]1O[C@]2(C=C[C@@H](NC(=O)c3ccccc3)[C@]3(CC[C@@](C)([C@H]4CC[C@](O)(CC)[C@H](C)O4)O3)O2)[C@H](C)C[C@@H]1C
0.2

Read the entry CCCNC(=O)N[C@@H]1C=C[C@]2(O[C@H]([C@@H](CC)C(=O)[C@@H](C)[C@@H](O)[C@H](C)[C@@H]3O[C@@H]([C@@H](CC)C(=O)[O-])CC[C@@H]3C)[C@@H](C)C[C@H]2C)O[C@@]12CC[C@@](C)([C@H]1CC[C@](O)(CC)[C@H](C)O1)O2.[Na+] and write its reported RI.
2.5

Quote RI reported for CC[C@@H](C(=O)[C@@H](C)[C@@H](O)[C@H](C)[C@@H]1O[C@@H]([C@@H](CC)C(=O)O)CC[C@@H]1C)[C@H]1O[C@]2(C=C[C@@H](NC(=O)CCCCl)[C@]3(CC[C@@](C)([C@H]4CC[C@](O)(CC)[C@H](C)O4)O3)O2)[C@H](C)C[C@@H]1C please.
2.5

// fetch RI given entry CC[C@@H](C(=O)[C@@H](C)[C@@H](O)[C@H](C)[C@@H]1O[C@@H]([C@@H](CC)C(=O)O)CC[C@@H]1C)[C@H]1O[C@]2(C=C[C@@H](NC(=O)c3ccc(CCl)cc3)[C@]3(CC[C@@](C)([C@H]4CC[C@](O)(CC)[C@H](C)O4)O3)O2)[C@H](C)C[C@@H]1C
2.2

Give a short answer stating reported RI for N.N.[Cl][Pt][Cl] [cisplatin, reference compound] .
1.1

Complete the entry with RI for CCOC(=O)N[C@@H]1C=C[C@]2(O[C@H]([C@@H](CC)C(=O)[C@@H](C)[C@@H](O)[C@H](C)[C@@H]3O[C@@H]([C@@H](CC)C(=O)O)CC[C@@H]3C)[C@@H](C)C[C@H]2C)O[C@@]12CC[C@@](C)([C@H]1CC[C@](O)(CC)[C@H](C)O1)O2
269.4

Return reported RI. Input compound: CC[C@@H](C(=O)[C@@H](C)[C@@H](O)[C@H](C)[C@@H]1O[C@@H]([C@@H](CC)C(=O)[O-])CC[C@@H]1C)[C@H]1O[C@]2(C=C[C@@H](NC(=O)NCCCCl)[C@]3(CC[C@@](C)([C@H]4CC[C@](O)(CC)[C@H](C)O4)O3)O2)[C@H](C)C[C@@H]1C.[Na+]
11.0

Name the recorded RI of the item CCOC(=O)N[C@H]1C=C[C@]2(O[C@H]([C@@H](CC)C(=O)[C@@H](C)[C@@H](O)[C@H](C)[C@@H]3O[C@@H]([C@@H](CC)C(=O)O)CC[C@@H]3C)[C@@H](C)C[C@H]2C)O[C@@]12CC[C@@](C)([C@H]1CC[C@](O)(CC)[C@H](C)O1)O2 [(19 epi), reference compound] in your answer.
3

Please report RI for the following compound: CCCCNC(=O)N[C@@H]1C=C[C@]2(O[C@H]([C@@H](CC)C(=O)[C@@H](C)[C@@H](O)[C@H](C)[C@@H]3O[C@@H]([C@@H](CC)C(=O)[O-])CC[C@@H]3C)[C@@H](C)C[C@H]2C)O[C@@]12CC[C@@](C)([C@H]1CC[C@](O)(CC)[C@H](C)O1)O2.[Na+]
1.6

Data origin: patent US12741974B2
